- experiment_notes: logP by HPLC retention time correlation
- Format: physicochemical
- condition_description: standardized reversed phase HPLC system
Kindly supply the reported chromatographic logP values for the records listed here.
Answers are plain numbers.

CC1=CC(C)=[N+]2C1=C(c1ccc(OCCOCCn3cc(COc4ccc(C(C(N)=O)(c5ccccc5)c5ccc(F)cc5)cc4)nn3)cc1)c1c(C)cc(C)n1[B-]2(F)F (stereo not shown) : 5.4

// each compound listed below needs its chromatographic logP
1. CC1=CC(C)=[N+]2C1=C(CCCCn1cc(COc3ccc(C(C(N)=O)(c4ccccc4)c4ccc(F)cc4)cc3)nn1)c1c(C)cc(C)n1[B-]2(F)F (stereo not shown) [15a]
2. CCC1=C(C)C2=C(c3ccc(OCCOCCn4cc(COc5ccc(C(C(N)=O)(c6ccccc6)c6ccc(F)cc6)cc5)nn4)cc3)c3c(C)c(CC)c(C)n3[B-](F)(OC)[N+]2=C1C (stereo not shown) [10b]
3. CO[B-]1(F)n2c(C)cc(C)c2C(c2ccc(OCCOCCn3cc(COc4ccc(C(C(N)=O)(c5ccccc5)c5ccc(F)cc5)cc4)nn3)cc2)=C2C(C)=CC(C)=[N+]21 (stereo not shown) [10a]
4. CO[B-]1(F)n2c(C)cc(C)c2C(CCCCn2cc(COc3ccc(C(C(N)=O)(c4ccccc4)c4ccc(F)cc4)cc3)nn2)=C2C(C)=CC(C)=[N+]21 (stereo not shown) [16a]
5. CCC1=C(C)C2=C(c3ccc(OCCOCCn4cc(COc5ccc(C(C(N)=O)(c6ccccc6)c6ccc(F)cc6)cc5)nn4)cc3)c3c(C)c(CC)c(C)n3[B-](F)(F)[N+]2=C1C (stereo not shown)
6. CCC1=C(C)C2=C(CCCCn3cc(COc4ccc(C(C(N)=O)(c5ccccc5)c5ccc(F)cc5)cc4)nn3)c3c(C)c(CC)c(C)n3[B-](F)(OC)[N+]2=C1C (stereo not shown) [16b]

Output line:
1. 4.8
2. 5.8
3. 4.4
4. 4
5. 6.7
6. 5.4

---

What logD was measured for each of the following?
- experiment_notes: logD7.4 by micro shake flask method (n-octanol / MOPS buffer pH 7.4, LC-MS)
- Type: physicochemical
- condition_description: read-out: logD7.4 ± SD (Micro Shake Flask)

# return logD for each item in the list
1. NC(=O)C(c1ccccc1)(c1ccc(F)cc1)c1ccc(OCCOCCNC(=S)Nc2ccc3c(c2)C(=O)OC32c3ccc(O)cc3Oc3cc(O)ccc32)cc1 (stereo not drawn) [21a]
2. CCC1=C(C)C2=C(c3ccc(OCCOCCn4cc(COc5ccc(C(C(N)=O)(c6ccccc6)c6ccc(F)cc6)cc5)nn4)cc3)c3c(C)c(CC)c(C)n3[B-](F)(OC)[N+]2=C1C (stereo not drawn) [10b]
3. CO[B-]1(F)n2c(C)cc(C)c2C(CCCCn2cc(COc3ccc(C(C(N)=O)(c4ccccc4)c4ccc(F)cc4)cc3)nn2)=C2C(C)=CC(C)=[N+]21 (stereo not drawn) [16a]

Output line:
1.69
> 5
> 5
